# literature pull: UniProt Q9H3R0 IC50
parameter.measured: IC50

{"columns": ["compound", "reported.measurement"],
 "data": [
  ["CC(C)c1ccc(N(C)c2ccc3c(c2)OCC[C@H]3CNc2cnccc2C(=O)O)cc1", "100 to 1000 nM"],
  ["CCc1ccc(N(C)c2ccc(Oc3nc(O)c4ccncc4n3)cc2)cc1OC", "100 to 1000 nM"],
  ["Cc1ccc(-c2ccc3c(c2)OCC[C@@H]3CNc2cnccc2C(=O)O)cc1", "1000 to 10000 nM"],
  ["Cc1c(F)cccc1-c1ccc2c(c1)OCC[C@@H]2CNc1cnccc1C(=O)O", "1000 to 10000 nM"],
  ["O=C(O)c1ccnc(-n2nccc2OCc2ccc(Cl)c(OCC(F)(F)F)c2)c1", "100 to 1000 nM"],
  ["COc1cc2c(cc1C)C(CNc1cnccc1C(=O)O)CCC2 (stereo not drawn)", "100 to 1000 nM"],
  ["O=C(O)c1ccnc(-n2nccc2OCc2ccc(C(F)(F)F)cc2)c1", "100 to 1000 nM"],
  ["O=C(O)c1ccnc(-c2cn(CCc3cccc(Cl)c3)cn2)c1", "100 to 1000 nM"],
  ["O=C(O)c1ccncc1NC[C@H]1CCCc2cc(Sc3cccc(F)c3)ccc21", "1000 to 10000 nM"],
  ["C#Cc1ccc(-c2c(-c3cc(C(=O)O)ccn3)ncn2C)cc1", "100 to 1000 nM"],
  ["CC(C)C(c1ccccc1)n1cnc(-c2cc(C(=O)O)ccn2)c1 (stereo not drawn)", "100 to 1000 nM"],
  ["CCN(c1ccccc1)c1ccc(Oc2nc(O)c3ccncc3n2)cc1", "100 to 1000 nM"],
  ["O=C(O)c1ccncc1Nc1nn(CCN2CCCC2)c2ccc(F)cc12", "< 100 nM"],
  ["COCCn1cnc(-c2cc(C(=O)O)ccn2)c1-c1ccc(Cl)c(F)c1", "1000 to 10000 nM"],
  ["Oc1nc(OCC2CCc3ccccc32)nc2cnccc12 (stereo not drawn)", "≤ 100 nM"],
  ["O=C(O)c1ccncc1NCC1CCCc2cc(S(=O)(=O)c3cccc(F)c3)ccc21 (stereo not drawn)", "100 to 1000 nM"],
  ["Cc1ccc(-c2c(-c3cc(C(=O)O)ccn3)ncn2C)cc1", "1000 to 10000 nM"],
  ["CN(c1ccc(OC(F)F)cc1)c1ccc2c(c1)CCC[C@H]2CNc1cnccc1C(=O)O", "100 to 1000 nM"],
  ["O=C(O)c1ccnc(-c2cn(CC3CCCc4ccccc43)cn2)c1 (stereo not drawn)", "100 to 1000 nM"],
  ["CN(c1ccc(Oc2nc(O)c3ccncc3n2)cc1)c1ccc(C2CC2)cc1", "100 to 1000 nM"],
  ["c1ccc2c(c1)CCCC2Cn1cnc(-c2cc(-c3nn[nH]n3)ccn2)c1 (stereo not drawn)", "1000 to 10000 nM"],
  ["O=C(O)c1ccncc1NC[C@@H]1CCOc2cc(Sc3ccc(F)cc3)ccc21", "100 to 1000 nM"],
  ["CCc1ccc(N(C)c2ccc3c(c2)OCC[C@H]3CNc2cnccc2C(=O)O)nc1", "100 to 1000 nM"],
  ["O=C(O)c1ccnc(-n2nccc2-c2ccc(O)cc2)c1", "100 to 1000 nM"],
  ["Cc1ccc(N(C)c2ccc3c(c2)OCC[C@H]3CNc2cnccc2C(=O)O)cc1", "100 to 1000 nM"],
  ["CN(c1ccc(-n2cccn2)cc1)c1ccc2c(c1)OCC[C@H]2CNc1cnccc1C(=O)O", "100 to 1000 nM"],
  ["COc1cc(Cl)ccc1COc1ccnn1-c1cc(C(=O)O)ccn1", "< 100 nM"],
  ["O=C(O)c1ccnc(-n2ccc(Cc3ccccc3)n2)c1", "1000 to 10000 nM"],
  ["Cc1cc(N2CCN(C)CC2)cc(N(C)c2ccc(Oc3nc(O)c4ccncc4n3)cc2)c1", "≤ 100 nM"],
  ["O=C(O)c1ccncc1NC[C@@H]1CCOc2cc(Sc3cccc(F)c3)ccc21", "100 to 1000 nM"],
  ["Cn1cnc(-c2cc(C(=O)O)ccn2)c1-c1ccc(C2(C(F)(F)F)CC2)cc1", "100 to 1000 nM"],
  ["CN1CC=C(c2ccc(N(C)c3ccc4c(c3)OCC[C@H]4CNc3cnccc3C(=O)O)cc2)CC1", "≤ 100 nM"],
  ["CN(c1ccc(OCC(F)(F)F)cc1)c1ccc2c(c1)OCC[C@H]2CNc1cnccc1C(=O)O", "100 to 1000 nM"]
]}
